Reported IC50 values are given for each entry in this list.
Tested on: K562
Test: cells
Conditions: Homo sapiens, K562, 72 h
Description: Antiproliferative activity against human K562 cells incubated for 3 days by MTT assay
readout.name: IC50 (µM)

compound="O=C1NC2(Nc3c(Br)cc(Br)cc31)C(=O)N(Cc1ccc(F)cc1)c1ccccc12 (stereo not given)" units_text=µM value_comparator=> quantitative_result=100
compound="O=C1NC2(Nc3ccccc31)C(=O)N(Cc1ccc(Br)cc1)c1ccccc12 (stereo not given)" units_text=µM value_comparator== quantitative_result=19.9
compound="O=C1NC2(Nc3c(Br)cc(Br)cc31)C(=O)N(Cc1ccc(Cl)cc1)c1ccccc12 (stereo not given)" units_text=µM value_comparator== quantitative_result=13.8
compound="CCN1C(=O)C2(NC(=O)c3ccccc3N2)c2ccccc21 (stereo not given)" units_text=µM value_comparator== quantitative_result=50.4
compound="COc1cc2nccc(Oc3ccc(NC(=O)C4(C(=O)Nc5ccc(F)cc5)CC4)cc3)c2cc1OC [CABOZANTINIB]" units_text=µM value_comparator== quantitative_result=1.9

* * *

Test system: A549
Assay: cells
Settings: Homo sapiens, A549, 72 h
Description: Antiproliferative activity against human A549 cells incubated for 3 days by MTT assay
Reported IC50 values are given for each entry in this list.
readout.name: IC50 (µM)

molecule="Cc1ccc(CN2C(=O)C3(NC(=O)c4ccccc4N3)c3ccccc32)cc1 (stereo not given)" tested_on=A549 units_text=µM value_comparator== quantitative_result=26.2
molecule="O=C1NC2(Nc3ccccc31)C(=O)N(Cc1ccc(Br)cc1)c1ccccc12 (stereo not given)" tested_on=A549 units_text=µM value_comparator== quantitative_result=39.7
molecule="CCCCCN1C(=O)C2(NC(=O)c3ccccc3N2)c2ccccc21 (stereo not given)" tested_on=A549 units_text=µM value_comparator=> quantitative_result=100
molecule="CC(C)(C)c1ccc(CN2C(=O)C3(NC(=O)c4cc(Br)cc(Br)c4N3)c3ccccc32)cc1 (stereo not given)" tested_on=A549 units_text=µM value_comparator== quantitative_result=45.5
molecule="CCN1C(=O)C2(NC(=O)c3ccccc3N2)c2ccccc21 (stereo not given)" tested_on=A549 units_text=µM value_comparator=> quantitative_result=100
molecule="CCCCCN1C(=O)C2(NC(=O)c3cc(Br)cc(Br)c3N2)c2ccccc21 (stereo not given)" tested_on=A549 units_text=µM value_comparator== quantitative_result=47.1
molecule="COc1cc2nccc(Oc3ccc(NC(=O)C4(C(=O)Nc5ccc(F)cc5)CC4)cc3)c2cc1OC [CABOZANTINIB]" tested_on=A549 units_text=µM value_comparator== quantitative_result=16.2
molecule="O=C1NC2(Nc3c(Br)cc(Br)cc31)C(=O)N(Cc1ccc(F)cc1)c1ccccc12 (stereo not given)" tested_on=A549 units_text=µM value_comparator== quantitative_result=45.4
molecule="O=C1NC2(Nc3c(Br)cc(Br)cc31)C(=O)N(Cc1ccc(Cl)c(Cl)c1)c1ccccc12 (stereo not given)" tested_on=A549 units_text=µM value_comparator=> quantitative_result=100
molecule="O=C1NC2(Nc3c(Br)cc(Br)cc31)C(=O)N(Cc1ccc(Cl)cc1)c1ccccc12 (stereo not given)" tested_on=A549 units_text=µM value_comparator== quantitative_result=26.9

* * *

System: HT-29
Experiment: cells
Settings: Homo sapiens, HT-29, 72 h
Description: Antiproliferative activity against human HT-29 cells incubated for 3 days by MTT assay
Reported IC50 values are given for each entry in this list.
readout.name: IC50

molecule="COc1cc2nccc(Oc3ccc(NC(=O)C4(C(=O)Nc5ccc(F)cc5)CC4)cc3)c2cc1OC [CABOZANTINIB]" tested_on=HT-29 readout_name=IC50 result="3.7 µM"
molecule="CCCCCN1C(=O)C2(NC(=O)c3cc(Br)cc(Br)c3N2)c2ccccc21 (stereo not given)" tested_on=HT-29 readout_name=IC50 result="51.9 µM"
molecule="O=C1NC2(Nc3c(Br)cc(Br)cc31)C(=O)N(Cc1ccc(Cl)cc1)c1ccccc12 (stereo not given)" tested_on=HT-29 readout_name=IC50 result="12.5 µM"
molecule="O=C1NC2(Nc3ccccc31)C(=O)N(Cc1ccc(Br)cc1)c1ccccc12 (stereo not given)" tested_on=HT-29 readout_name=IC50 result="71.9 µM"
molecule="CC(C)(C)c1ccc(CN2C(=O)C3(NC(=O)c4cc(Br)cc(Br)c4N3)c3ccccc32)cc1 (stereo not given)" tested_on=HT-29 readout_name=IC50 result="> 100 µM"
molecule="O=C1NC2(Nc3c(Br)cc(Br)cc31)C(=O)N(Cc1ccc(Cl)c(Cl)c1)c1ccccc12 (stereo not given)" tested_on=HT-29 readout_name=IC50 result="24.3 µM"
molecule="O=C1NC2(Nc3c(Br)cc(Br)cc31)C(=O)N(Cc1ccc(F)cc1)c1ccccc12 (stereo not given)" tested_on=HT-29 readout_name=IC50 result="> 100 µM"
molecule="CCCCCN1C(=O)C2(NC(=O)c3ccccc3N2)c2ccccc21 (stereo not given)" tested_on=HT-29 readout_name=IC50 result="> 100 µM"
molecule="Cc1ccc(CN2C(=O)C3(NC(=O)c4ccccc4N3)c3ccccc32)cc1 (stereo not given)" tested_on=HT-29 readout_name=IC50 result="29.2 µM"
molecule="CCN1C(=O)C2(NC(=O)c3ccccc3N2)c2ccccc21 (stereo not given)" tested_on=HT-29 readout_name=IC50 result="28.5 µM"
